Tested on: HOP-62
Assay Name: Growth inhibition of human HOP62 cells at 10 uM after 48 hrs by SRB assay relative to control
Assay type: functional
Run Conditions: HOP-62, 48 h, read-out: GI
Is inhibition of growth at 10 µM at least 30%? Then true. If not, false.

Challenge: Decide: inhibition of growth at 10 µM of `COc1cccc(C(=O)Nc2cccc(-c3cc(=O)c4c(O)c(OC)c(OC)cc4o3)c2)c1` >= 30%?
Response given: true

Challenge: Decide: inhibition of growth at 10 µM of `COc1cccc(NC(=O)c2cccc(-c3cc(=O)c4c(OC)c(OC)c(OC)cc4o3)c2)c1` >= 30%?
Response given: true

Challenge: Decide: inhibition of growth at 10 µM of `COc1cc2oc(-c3cccc(C(=O)Nc4ccccc4)c3)cc(=O)c2c(O)c1OC` >= 30%?
Response given: true

Next:
Challenge: Decide: inhibition of growth at 10 µM of `COc1cc2oc(-c3cccc(NC(=O)c4ccc5c(c4)OCO5)c3)cc(=O)c2c(OC)c1OC` >= 30%?
Response given: true

Challenge: Decide: inhibition of growth at 10 µM of `COc1cc2oc(-c3cccc(C(=O)Nc4ccccc4)c3)cc(=O)c2c(OC)c1OC` >= 30%?
Response given: false

Challenge: Decide: inhibition of growth at 10 µM of `COc1cc2oc(-c3cccc(C(=O)Nc4ccc5c(c4)OCO5)c3)cc(=O)c2c(OC)c1OC` >= 30%?
Response given: false

Challenge: Decide: inhibition of growth at 10 µM of `COc1ccc(NC(=O)c2cccc(-c3cc(=O)c4c(O)c(OC)c(OC)cc4o3)c2)cc1` >= 30%?
Response given: false

Challenge: Decide: inhibition of growth at 10 µM of `COc1cc2oc(-c3cccc(NC(=O)c4ccccc4)c3)cc(=O)c2c(OC)c1OC` >= 30%?
Response given: false

Challenge: Decide: inhibition of growth at 10 µM of `COc1cc(NC(=O)c2cccc(-c3cc(=O)c4c(O)c(OC)c(OC)cc4o3)c2)cc(OC)c1OC` >= 30%?
Response given: true

Challenge: Decide: inhibition of growth at 10 µM of `COc1ccc(C(=O)Nc2cccc(-c3cc(=O)c4c(OC)c(OC)c(OC)cc4o3)c2)cc1` >= 30%?
Response given: false

Challenge: Decide: inhibition of growth at 10 µM of `COc1cc2oc(-c3cccc(C(=O)Nc4ccc5c(c4)OCO5)c3)cc(=O)c2c(O)c1OC` >= 30%?
Response given: true

Challenge: Decide: inhibition of growth at 10 µM of `COc1ccccc1C(=O)Nc1cccc(-c2cc(=O)c3c(OC)c(OC)c(OC)cc3o2)c1` >= 30%?
Response given: true

Challenge: Decide: inhibition of growth at 10 µM of `COc1ccc(NC(=O)c2cccc(-c3cc(=O)c4c(OC)c(OC)c(OC)cc4o3)c2)cc1` >= 30%?
Response given: true

Challenge: Decide: inhibition of growth at 10 µM of `COc1ccccc1C(=O)Nc1cccc(-c2cc(=O)c3c(O)c(OC)c(OC)cc3o2)c1` >= 30%?
Response given: false

Challenge: Decide: inhibition of growth at 10 µM of `COc1cc2oc(-c3cccc(NC(=O)c4ccc5c(c4)OCO5)c3)cc(=O)c2c(O)c1OC` >= 30%?
Response given: true

====

Test system: NCI/ADR-RES
Assay Name: Growth inhibition of human NCI/ADR-RES cells at 10 uM after 48 hrs by SRB assay relative to control
Type: functional
Run Conditions: read-out: GI
Group membership follows inhibition of growth at 10 µM per the scheme lower segment = under 30%, middle segment = from 30% up to 40%, upper segment = 40% and over

Challenge: Assign a bin to `COc1ccc(NC(=O)c2cccc(-c3cc(=O)c4c(O)c(OC)c(OC)cc4o3)c2)cc1`
Response given: lower segment

Challenge: Assign a bin to `COc1cccc(NC(=O)c2cccc(-c3cc(=O)c4c(O)c(OC)c(OC)cc4o3)c2)c1`
Response given: lower segment

Challenge: Assign a bin to `COc1cc2oc(-c3cccc(NC(=O)c4ccc5c(c4)OCO5)c3)cc(=O)c2c(O)c1OC`
Response given: lower segment

Next:
Challenge: Assign a bin to `COc1ccccc1C(=O)Nc1cccc(-c2cc(=O)c3c(O)c(OC)c(OC)cc3o2)c1`
Response given: lower segment

====

Tested on: ACHN
Assay Name: Growth inhibition of human ACHN cells at 10 uM after 48 hrs by SRB assay relative to control
Type: functional
Run Conditions: read-out: GI
inhibition of growth at 10 µM values by entry
State just the number; it will be interpreted in %.

Some solved cases for reference:
Challenge: Give a short answer stating reported inhibition of growth at 10 µM for `COc1cccc(NC(=O)c2cccc(-c3cc(=O)c4c(OC)c(OC)c(OC)cc4o3)c2)c1` .
Response given: 37.5

Challenge: Give a short answer stating reported inhibition of growth at 10 µM for `COc1cc2oc(-c3cccc(C(=O)Nc4ccc5c(c4)OCO5)c3)cc(=O)c2c(O)c1OC` .
Response given: 24.8

Challenge: Give a short answer stating reported inhibition of growth at 10 µM for `COc1cc2oc(-c3cccc(C(=O)Nc4ccccc4)c3)cc(=O)c2c(OC)c1OC` .
Response given: 8.22

For the next question, use this molecule.
Challenge: Give a short answer stating reported inhibition of growth at 10 µM for `COc1cccc(C(=O)Nc2cccc(-c3cc(=O)c4c(O)c(OC)c(OC)cc4o3)c2)c1` .
Response given: 35.5

====

pIC50 values by entry
Tested on: L132
Assay Name: Cytotoxicity against human L-132 cells after 48 hrs by MTT assay
Type: cell-based
Run Conditions: L132, 48 h
pIC50: −log10 of the molar value.

Some solved cases for reference:
Challenge: State the measured pIC50 (L132) of `COc1cc(NC(=O)c2cccc(-c3cc(=O)c4c(OC)c(OC)c(OC)cc4o3)c2)cc(OC)c1OC`
Response given: < 4.00

Challenge: State the measured pIC50 (L132) of `COc1ccccc1C(=O)Nc1cccc(-c2cc(=O)c3c(OC)c(OC)c(OC)cc3o2)c1`
Response given: < 4.00

Challenge: State the measured pIC50 (L132) of `COc1cc(NC(=O)c2cccc(-c3cc(=O)c4c(O)c(OC)c(OC)cc4o3)c2)cc(OC)c1OC`
Response given: < 4.00

For the next question, use this molecule.
Challenge: State the measured pIC50 (L132) of `COc1cc2oc(-c3cccc(NC(=O)c4ccc5c(c4)OCO5)c3)cc(=O)c2c(OC)c1OC`
Response given: 4.26

====

Tested on: MOLT-4
Assay Name: Growth inhibition of human MOLT4 cells at 10 uM after 48 hrs by SRB assay relative to control
Assay type: functional
Run Conditions: MOLT-4, 48 h, read-out: GI
inhibition of growth at 10 µM values by entry
State just the number; it will be interpreted in %.

Some solved cases for reference:
Challenge: Give a short answer stating reported inhibition of growth at 10 µM for `COc1ccccc1C(=O)Nc1cccc(-c2cc(=O)c3c(O)c(OC)c(OC)cc3o2)c1` .
Response given: 6.77

Challenge: Give a short answer stating reported inhibition of growth at 10 µM for `COc1cccc(C(=O)Nc2cccc(-c3cc(=O)c4c(OC)c(OC)c(OC)cc4o3)c2)c1` .
Response given: 53.3

Challenge: Give a short answer stating reported inhibition of growth at 10 µM for `COc1ccc(C(=O)Nc2cccc(-c3cc(=O)c4c(O)c(OC)c(OC)cc4o3)c2)cc1` .
Response given: 19.1

Challenge: Give a short answer stating reported inhibition of growth at 10 µM for `COc1ccc(C(=O)Nc2cccc(-c3cc(=O)c4c(OC)c(OC)c(OC)cc4o3)c2)cc1` .
Response given: 76.7

Next:
Challenge: Give a short answer stating reported inhibition of growth at 10 µM for `COc1cc(NC(=O)c2cccc(-c3cc(=O)c4c(OC)c(OC)c(OC)cc4o3)c2)cc(OC)c1OC` .
Response given: 89.6

Challenge: Give a short answer stating reported inhibition of growth at 10 µM for `COc1cccc(NC(=O)c2cccc(-c3cc(=O)c4c(OC)c(OC)c(OC)cc4o3)c2)c1` .
Response given: 51.5

Challenge: Give a short answer stating reported inhibition of growth at 10 µM for `COc1ccccc1C(=O)Nc1cccc(-c2cc(=O)c3c(OC)c(OC)c(OC)cc3o2)c1` .
Response given: 71.2

Challenge: Give a short answer stating reported inhibition of growth at 10 µM for `COc1cccc(NC(=O)c2cccc(-c3cc(=O)c4c(O)c(OC)c(OC)cc4o3)c2)c1` .
Response given: 24.2

====

Tested on: MDA-MB-468
Assay Name: Growth inhibition of human MDA-MB-468 cells at 10 uM after 48 hrs by SRB assay relative to control
Assay type: functional
Run Conditions: MDA-MB-468, 48 h, read-out: GI
Assay Readout: inhibition of growth at 10 µM (%)
State just the number; it will be interpreted in %.

Challenge: Give a short answer stating reported inhibition of growth at 10 µM for `COc1ccc(NC(=O)c2cccc(-c3cc(=O)c4c(OC)c(OC)c(OC)cc4o3)c2)cc1` .
Response given: 24.3

Challenge: Give a short answer stating reported inhibition of growth at 10 µM for `COc1cccc(NC(=O)c2cccc(-c3cc(=O)c4c(OC)c(OC)c(OC)cc4o3)c2)c1` .
Response given: 21

Challenge: Give a short answer stating reported inhibition of growth at 10 µM for `COc1cc2oc(-c3cccc(C(=O)Nc4ccccc4)c3)cc(=O)c2c(O)c1OC` .
Response given: 30.6

Challenge: Give a short answer stating reported inhibition of growth at 10 µM for `COc1cc2oc(-c3cccc(C(=O)Nc4ccccc4)c3)cc(=O)c2c(OC)c1OC` .
Response given: 9.98

Challenge: Give a short answer stating reported inhibition of growth at 10 µM for `COc1cccc(NC(=O)c2cccc(-c3cc(=O)c4c(O)c(OC)c(OC)cc4o3)c2)c1` .
Response given: 46

Challenge: Give a short answer stating reported inhibition of growth at 10 µM for `COc1cccc(C(=O)Nc2cccc(-c3cc(=O)c4c(OC)c(OC)c(OC)cc4o3)c2)c1` .
Response given: 5.72

Challenge: Give a short answer stating reported inhibition of growth at 10 µM for `COc1cc2oc(-c3cccc(C(=O)Nc4ccc5c(c4)OCO5)c3)cc(=O)c2c(OC)c1OC` .
Response given: 1.72

For the next question, use this compound.
Challenge: Give a short answer stating reported inhibition of growth at 10 µM for `COc1ccc(NC(=O)c2cccc(-c3cc(=O)c4c(O)c(OC)c(OC)cc4o3)c2)cc1` .
Response given: 15.7
